- assay-explanation: qHTS assay to identify aromatase inhibitors - cell viability counter screen (AID 743084);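 note: cells stimulated with testosterone during compound exposure; nearly all actives have a fitted effect of over 55% in size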
- condition-notes: MCF-7 aro ERE viability, CellTiter-Fluor, 24 h; series mostly up to 70.3 µM
Inconclusive results are not listed. Activity calls are given as the source filed them. Calls come from the whole dose curve; as a rule, active = well fitted cell-killing curve with a large enough effect in the repeat runs; inconclusive = weak or mixed curves, or effect the other way; inactive = no such curve, though single readings can be large or run the other way.
Tick one outcome: active, inactive

- compound: "C/C1=C2N=C(/C=C3N=C(/C(C)=C4\\[N-][C@@](C)([C@@H]5N=C1[C@](C)(CCC(=O)NCC(C)OP(=O)(O)O[C@H]1[C@@H](O)[C@@H](n6cnc7cc(C)c(C)cc76)O[C@@H]1CO)[C@H]5CC(N)=O)[C@@](C)(CC(N)=O)[C@@H]4CCC(N)=O)[C@@](C)(CC(N)=O)[C@@H]\\3CCC(N)=O)C(C)(C)[C@@H]/2CCC(N)=O.CC(=O)O.[Co] (stereo partly drawn)"
  category-label: "active"
- compound: "CC(=O)Nc1ccc(NC(=S)NC(=O)c2ccc(C(C)(C)C)cc2)cc1"
  category-label: "inactive"
- compound: "O=C(Nc1ccc(O)cc1)c1ccccc1O"
  category-label: "inactive"

Look up the recorded call for O=S(=O)(O)Oc1ccc(C(c2ccc(OS(=O)(=O)O)cc2)c2ccccn2)cc1 in this test. inactive

Request: N#Cc1ccc2c(c1)N(CCCN1CCC(O)CC1)c1ccccc1S2 inactive

Check CCOc1ccc(N=Nc2ccc(N)cc2N)cc1 too. active

Now try O=C1C(=O)c2ncccc2-c2cccnc21 . inactive

Next record, please: CCCCCCCCCCCCCCCC(=O)OC[C@@H](O)[C@H]1OC[C@H](O)[C@H]1O inactive
